molecular target: T1, HLA-DRB1*1101 (human); assay: competitive MHC class II binding assay; competitor: control peptide Influenza haemagglutinin 307-319;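 note: each peptide was tested for its capacity to displace a known reference binder from human MHC class II allotypes, and its IC50 is expressed relative to that of the reference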
T1 construct: human MHC class II allotype
Consider the following binders; for each one, report its ratio of IC50 to that of the control peptide.
The reply should contain only the number, in ratio.

The recorded ratio of IC50 to that of the control peptide for entry RYVAREQSCRRPN [HDM06] equals 30.4

The recorded ratio of IC50 to that of the control peptide for entry REALAQTHSAIAVI [HDM09A] equals 21.1

The recorded ratio of IC50 to that of the control peptide for entry VDFKGELAMRNIE [HDM51] equals 30.9
